# Target or system: T1, human BCMA protein (human, UniProt Q02223 1-54, limits assumed)
# T1 sequence: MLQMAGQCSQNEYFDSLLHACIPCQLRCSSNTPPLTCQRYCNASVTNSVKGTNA
# Method description: affinity to human BCMA protein, method not stated
Experimental readout: pKd
On this scale, pKd is minus log10 of a concentration expressed in M (mol/L).

Known pKd results, listed for orientation:
| Binder | pKd |
| --- | --- |
| BCMA targeting trispecific protein 01B01 (other, not shown: large carriers; small tags and cut ends, trispecific) VHH: EVQLVESGGGLVQPGRSLTLSCAASTNIPSISPMGWYRQAPGKQRELVAAIHGESTLYADSVKGRFTISRDNAKNSIYLQMNSLRPEDTALYYCNKVPWGDYHPRNVAWGQGTQVTVSS | 7.70 |
| BCMA targeting trispecific protein 01E04 (other, not shown: large carriers; small tags and cut ends, trispecific) VHH: EVQLVESGGGLVQPGRSLTLSCAASTNIASISPMGWYRQAPGKQRELVAAIHGTSTLYADSVKGRFTISRDNAKNSIYLQMNSLRPEDTALYYCNKVPWGDYHPGNVYWGQGTQVTVSS | 8.14 |
| BCMA targeting trispecific protein 02E06 (other, not shown: large carriers; small tags and cut ends, trispecific; also called 02E06 TriTAC) VHH: EVQLVESGGGLVQPGRSLTLSCAASTNIFSDSPMGWYRQAPGKQRELVAAIHGFSTFYADSVKGRFTISRDNAKNSIYLQMNSLRPEDTALYYCNKVPWGDYHPGNVYWGQGTQVTVSS | 8.20 |
| BCMA targeting trispecific protein 02D11 (other, trispecific; not shown: the C-terminal His6 follows those missing domains and is left out) VHH: EVQLVESGGGLVQPGRSLTLSCAASTNEFSISPMGWYRQAPGKQRELVAAIHGESTLYADSVKGRFTISRDNAKNSIYLQMNSLRPEDTALYYCNKVPWGDYHPGNVYWGQGTQVTVSS | 8.17 |
| BCMA targeting trispecific protein 02E05 (other, trispecific; also called 02E05 TriTAC; not shown: the C-terminal 6xHis tag follows those domains and is left out) VHH: EVQLVESGGGLVQPGRSLTLSCAASTNIFSRSPMGWYRQAPGKQRELVAAIHGISTLYADSVKGRFTISRDNAKNSIYLQMNSLRPEDTALYYCNKVPWGDYHPGNVYWGQGTQVTVSS | 8.19 |
| BCMA targeting trispecific protein 02G11 (other, not shown: large carriers; small tags and cut ends, trispecific) VHH: EVQLVESGGGLVQPGRSLTLSCAASTNIDSISPMGWYRQAPGKQRELVAAIHGSSTLYADSVKGRFTISRDNAKNSIYLQMNSLRPEDTALYYCNKVPWGDYHPRNVTWGQGTQVTVSS | 7.69 |
| BCMA targeting trispecific protein 02G06 (other, not shown: large carriers; small tags and cut ends, trispecific) VHH: EVQLVESGGGLVQPGRSLTLSCAASTNIFSGSPMGWYRQAPGKQRELVAAIHGNSTLYADSVKGRFTISRDNAKNSIYLQMNSLRPEDTALYYCNKVPWGDYHPGNVYWGQGTQVTVSS | 8.12 |
| BCMA targeting trispecific protein 01D03 (other, trispecific; not shown: anti-albumin domain, anti-CD3 domain and the linkers of the trispecific (TriTAC) format) VHH: EVQLVESGGGLVQPGRSLTLSCAASTNIFSNSPMGWYRQAPGKQRELVAAIHGDSTLYADSVKGRFTISRDNAKNSIYLQMNSLRPEDTALYYCNKVPWGDYHPRNVRWGQGTQVTVSS | 7.68 |
| BCMA targeting trispecific protein 02F06 (other, not shown: large carriers; small tags and cut ends, trispecific) VHH: EVQLVESGGGLVQPGRSLTLSCAASTNIFSITPMGWYRQAPGKQRELVAAIHGESTLYADSVKGRFTISRDNAKNSIYLQMNSLRPEDTALYYCNKVPWGRYHPRNVYWGQGTQVTVSS | 7.66 |
| BCMA targeting trispecific protein 02F11 (other, trispecific; not shown: anti-albumin domain, anti-CD3 domain and the linkers of the trispecific (TriTAC) format) VHH: EVQLVESGGGLVQPGRSLTLSCAASTNIFSTSPMGWYRQAPGKQRELVAAIHGTSTLYADSVKGRFTISRDNAKNSIYLQMNSLRPEDTALYYCNKVPWGDYHPRNVQWGQGTQVTVSS | 7.70 |

(Q) Give the measured pKd of BCMA targeting trispecific protein 01H05 (other, not shown: large carriers; small tags and cut ends, trispecific) VHH: EVQLVESGGGLVQPGRSLTLSCAASTNIFSITPMGWYRQAPGKQRELVAAIHGTSTLYADSVKGRFTISRDNAKNSIYLQMNSLRPEDTALYYCNKVPWGRYHPRNVYWGQGTQVTVSS .
(A) 7.56

(Q) Give the measured pKd of BCMA targeting trispecific protein 02H06 (other, trispecific; not shown: The C-terminal 6xHis tag is left out because it follows these missing domains) VHH: EVQLVESGGGLVQPGRSLTLSCAASTNIRSISPMGWYRQAPGKQRELVAAIHGSSTLYADSVKGRFTISRDNAKNSIYLQMNSLRPEDTALYYCNKVPWGDYHPRNVVWGQGTQVTVSS .
(A) 7.63
